- experimental_system: T1, Cmr6 (TTHB165) with a (His)6 tag at its C-terminus (Thermus thermophilus HB8, UniProt Q53W04 2-348)
- T1 sequence (looked up): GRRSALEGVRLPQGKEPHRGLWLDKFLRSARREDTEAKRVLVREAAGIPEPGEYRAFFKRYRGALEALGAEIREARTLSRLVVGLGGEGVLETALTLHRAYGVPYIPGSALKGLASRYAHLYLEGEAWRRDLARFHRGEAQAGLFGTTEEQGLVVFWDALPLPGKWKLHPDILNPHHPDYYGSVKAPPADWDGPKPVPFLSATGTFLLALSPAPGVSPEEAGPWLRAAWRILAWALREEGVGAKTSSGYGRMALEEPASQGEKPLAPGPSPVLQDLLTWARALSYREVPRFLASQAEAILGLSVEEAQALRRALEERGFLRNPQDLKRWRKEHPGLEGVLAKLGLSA
- measurement_notes: native MS
endpoint: stoichiometry N (copies per Cmr6)
Numbers only, in copies per Cmr6.

Asked: Returns the measured stoichiometry N for the input binder. Input: Cmr4 (TTHB163) (natural protein, Thermus thermophilus HB8 (endogenous), UniProt Q53W06 2-286, looked up) SHVALLFLHALSPLHAGTGQGIGAIDLPIAREKATGIPYLPGSSLKGVLRDRASAWDRDTLFAVFGPDTENASEHAGAVQVGDAKLLLLPVRSLYGVFALVASPYLLERFRREALMAGLQPPGVPGLQDPTRVLLAPGSRLLGDGEKVYLEDLDLKAQGEEGVAAWERWLAERTEAPVLGRLAVVHDDLMGFLLETATEVVARIRLDDETKTVAKGALWYEESLPAESLLYALVRADRSFRKGKELPPEGVWALFRGVLEEGGGVLQLGGKATVGRGLCRIVVGR
Given back: 4
